- Test system: HCC-2998 colon
- Assay name: NCI tumour cell line growth inhibition, 48 h

| Compound | Relation symbol | TGI (µM) |
| --- | --- | --- |
| NCC(Cl)C(O)c1cnc(N)[nH]1 (stereo unspecified) | = | 5.12 |
| CC(C)OC(=O)c1ccc(NCC2=CC(=O)C=CC2=O)cc1 | = | 38.2 |
| NCCCC[C@@H]1NC(=O)[C@H]2CCCN2C(=O)[C@H](Cc2ccccc2)NC(=O)[C@H](Cc2ccccc2)CNC1=O | > | 100 |
| COc1ccc2c(c1)C(=O)c1c-2n(CCCn2ccnc2)c(=O)c2ccccc12 | = | 2.91 |
| COC(=O)C1=CC2C(=O)c3ccccc3C1(c1ccccc1)N2C1CCCCC1 (stereo unspecified) | = | 30.1 |
| O=C(c1cccc(O)c1O)c1cn(Cc2ccc(F)cc2)c2cccc(O)c12 | = | 11.4 |

----------
- Tested on: SF-295 CNS
- Assay name: NCI tumour cell line growth inhibition, 48 h; in the data active means GI50 below about 0.43 µM; inactive means the rest
Possible outcomes: true (active), false (inactive)

| Compound | Label |
| --- | --- |
| CN(C)CCCn1c2c(c3ccccc3c1=O)C(=O)c1ccccc1-2 | false |
| COc1ccc(C(=O)c2cc(C)c(OC)c(C)c2)c(OC)c1N(C(=O)C(Cl)Cl)C(=O)C(Cl)Cl | true |
| COc1cc(OC)c(/C=C/C(=O)c2c(OC)cccc2OC)c(OC)c1 | true |
| NC(=S)N/N=C/c1ccc(OC(=O)COc2ccc(Cl)cc2)cn1 | false |
| Cc1ccc(/C(=C/C=C(C#N)C#N)Sc2ccc(Cl)cc2)cc1 | false |
| N.N.N.N.N.O=C([O-])c1nn[n-]n1.[Cl-].[Co+3] | false |
| CN(C)c1ccc(N)cc1 | false |
| CCN1C(=O)CNc2ncc(-c3ccc(-c4ncn[nH]4)nc3C)nc21 | true |

----------
- System: T-47D breast
- Assay name: NCI tumour cell line growth inhibition, 48 h; in the data active = GI50 below about 0.43 µM; inactive = the rest
Possible outcomes: y for active, n for inactive

| Compound | Target desc | Label |
| --- | --- | --- |
| CC/C=C\C[C@@H]1C/C=C2/C(=O)C=C[C@H]2C/C=C\CCCC(=O)O1 | T-47D breast | n |
| COc1ccc(OC)c(/C=C/C(=O)N/N=C/c2ccc(Cl)cc2)c1 | T-47D breast | y |
| CC(=O)OC1CC(O)C23COC(O)C1(C)C2CC(O)C1(C)C3C(=O)C(O)C2(C)C(c3ccoc3)CC3OC321 (stereo unspecified) | T-47D breast | y |
| O=C(Nc1ccc(Cl)cc1)c1cc(-c2ccc(F)cc2)c2sc(=O)[nH]c2n1 | T-47D breast | n |
| NC(=S)N/N=C/c1ccc(OC(=O)COc2ccc(Cl)cc2)cn1 | T-47D breast | n |
| CCS(=O)(=O)c1ccc(OC)c(Nc2ncc(-c3cccc(OC)c3)o2)c1 | T-47D breast | n |
| CCC#CC[C@H]1C/C=C2/C(=O)C=C[C@@H]2C/C=C\CCCC(=O)O1 | T-47D breast | n |
| Fc1cc(F)c(COc2cc(Cn3cnc4c(Cl)nc(Cl)nc43)ccc2C23CC4CC(CC(C4)C2)C3)cc1F | T-47D breast | n |
| Cc1cn2c(/C=C3/C(=O)N(C)c4ccccc43)c(C)nc2s1 | T-47D breast | n |
| CCN(CC)c1sc(N(CC)CC)c2c1SSSSS2 | T-47D breast | n |
| COc1cc[nH]c1/C=C1\C(=O)Nc2ccccc21 | T-47D breast | n |

----------
- Test system: HOP-62 NSCLC
- Assay name: NCI tumour cell line growth inhibition, 48 h
Catalogue of log10 of TGI values
Measurement kind: log10 of TGI (log10 of the value in µM)

| Molecule | Target desc | Experimental result |
| --- | --- | --- |
| COc1ccc2c(c1)C(=O)c1c-2n(CCCn2ccnc2)c(=O)c2ccccc12 | HOP-62 NSCLC | -0.11 |
| CCN(CC)CCCC(C)Nc1c(C)cnc2cc(Cl)c(C)cc12 (stereo unspecified) | HOP-62 NSCLC | 1.52 |
| CCN(CC)c1ccc(C(=N)c2ccc(N(CC)CC)cc2)cc1 | HOP-62 NSCLC | 0.41 |
| C[N+](C)(C)CC1CCCC(C[N+](C)(C)C)C1=O (stereo unspecified) | HOP-62 NSCLC | 1.64 |
| O=C(CCl)Nc1ccc(Cl)cc1 | HOP-62 NSCLC | 0.59 |

----------
- System: BT-549 breast
- Assay name: NCI tumour cell line growth inhibition, 48 h
Catalogue of TGI values

| Compound | Target desc | Units of measure | Relation symbol | TGI |
| --- | --- | --- | --- | --- |
| COc1ccc(NC(=S)Nc2cc(C)ccn2)cc1 | BT-549 breast | µM | > | 100 |
| CCOc1cccc(C=Nc2ccccc2SSc2ccccc2N=Cc2cccc(OCC)c2O)c1O | BT-549 breast | µM | = | 8.19 |
| CCS(=O)(=O)c1ccc(OC)c(Nc2ncc(-c3cccc(C(C)=O)c3)o2)c1 | BT-549 breast | µM | > | 25 |
| CC(=O)OCC1OC(NC(=S)Nn2c(=O)[nH]c3ccccc3c2=O)C(OC(C)=O)C(OC(C)=O)C1OC(C)=O (centres undefined) | BT-549 breast | µM | > | 100 |
| COC(=O)c1ccccc1/C=C1\Cc2c(C)c3c(c(C)c2C1=O)CCC3 | BT-549 breast | µM | > | 100 |
| Cc1ccc2c(c1)C(=O)C1(C2)Cc2c(C)cccc2C1=O (centres undefined) | BT-549 breast | µM | > | 100 |
| CC(C)CCCC(C)[C@H]1CC[C@H]2n3c(nnc3-c3ccccc3)CCC[C@]12C (some centres undefined) | BT-549 breast | µM | = | 41.7 |
| CC1=NN(c2cccc(S(=O)(=O)O)c2)C2(C1)C(Cl)C(=O)N2c1nc2ccccc2s1 (centres undefined) | BT-549 breast | µM | = | 18.7 |
| NC1C/C(=N\O)c2c(Cl)sc(Cl)c21 (centres undefined) | BT-549 breast | µM | = | 32.9 |

----------
- Test system: SNB-75 CNS
- Assay name: NCI tumour cell line growth inhibition, 48 h
Catalogue of TGI values

| Molecule | Units of measure | Relation symbol | TGI |
| --- | --- | --- | --- |
| Cc1cn2c(/C=C3/C(=O)N(C)c4ccccc43)c(C)nc2s1 | µM | = | 23.4 |
| NC(N)=NCCCn1c2c(c3ccccc3c1=O)C(=O)c1ccccc1-2 | µM | = | 26.4 |
| CCN(CC)CCCC(C)Nc1c(C)cnc2cc(Cl)c(C)cc12 (stereo unspecified) | µM | = | 36 |
| Cc1c(N=Nc2ccccc2)c(-c2ccccc2)n(C2OC(CO)C(O)C(O)C2O)c(=S)c1C#N (stereo unspecified) | µM | > | 100 |
| COc1ccc(CC2Cc3ccccc3CCN2)cc1OC (stereo unspecified) | µM | > | 50 |
| C=CCN1C(=O)/C(=C/c2ccc(Cl)cc2)N=C1SC/C=C/C | µM | > | 100 |

----------
- System: HOP-92 NSCLC
- Assay name: NCI tumour cell line growth inhibition, 48 h
Catalogue of TGI values
Measurement kind: TGI

| Compound | Experimental result |
| --- | --- |
| COc1cc[nH]c1/C=C1\C(=O)Nc2ccccc21 | > 21 µM |
| CCOC(=O)c1c(CN2CCN(c3ccccc3)CC2)n(-c2ccccc2)c2cc(Br)c(O)cc12 | 11.7 µM |
| COc1cc(OC(=O)c2c(O)cc(O)c(O)c2C)cc(C)c1C(=O)Oc1cc(C)c(C(=O)O)c(O)c1 | > 100 µM |
| COc1cccc(Nc2nc(C)c([N+](=O)[O-])c(Nc3cccc(OC)c3)n2)c1 | > 100 µM |
| O=c1cccccc1NCCCNc1cccccc1=O | > 100 µM |
| Cc1cccc2nc(-c3ccccc3)cc(=O)n12 | > 100 µM |
| Cn1cc(C(=O)c2ccccc2)ccc1=O | > 100 µM |
| COc1cc2c(/C=C3/C(=O)Nc4ccc(O)cc43)c(Cl)n(Cc3ccccc3)c2cc1C | > 78.3 µM |
| CC1(n2nc(-c3ccccc3)n(-c3ccccc3)c2=O)CSC1 | > 100 µM |
| C/C(Cl)=N/OC(=O)Nc1ccc(F)c([N+](=O)[O-])c1 | > 72.5 µM |
| Cc1cn2c(/C=C3/C(=O)N(C)c4ccccc43)c(C)nc2s1 | > 100 µM |
| COC(=O)/C(C)=N/NC(=S)SC | > 100 µM |
| Cc1cn(C2OC(CO[Si](C)(C)C(C)(C)C)/C(=C\C#N)C2O[Si](C)(C)C(C)(C)C)c(=O)[nH]c1=O (centres undefined) | > 100 µM |
| CC(=O)O[C@H]1C(=O)[C@@]2(C)[C@H]([C@H](OC(=O)c3ccccc3)[C@]3(O)C[C@H](OC(=O)[C@H](O)[C@@H](NC(=O)c4ccc(N)cc4)c4ccccc4)C(C)=C1C3(C)C)[C@]1(OC(C)=O)CO[C@@H]1C[C@@H]2O | > 50 µM |
| Cc1cc(C)c(C(=O)CC(=O)c2cccnc2)c(C)c1 | 57 µM |
| COc1ccc2c(c1)C(=O)c1c-2n(CCCn2ccnc2)c(=O)c2ccccc12 | > 23.2 µM |
| CC(=O)OC1CC(O)C23COC(O)C1(C)C2CC(O)C1(C)C3C(=O)C(O)C2(C)C(c3ccoc3)CC3OC321 (centres undefined) | > 100 µM |
| Cc1cc(C)nc(NS(=O)(=O)c2ccc(Nc3c4ccccc4nc4c(C(=O)Nc5ccc(S(=O)(=O)Nc6cc(C)on6)cc5)cccc34)cc2)n1 | 39.5 µM |
| CCCCCCCC(CC(=O)NC(CO)C(=O)NC(CO)CC(C)C)OC(=O)CC(CCCCCCC)OC(=O)CC(CCCCCCC)OC1OC(C)C(O)C(OC2OC(C)C(O)C(OC(C)=O)C2O)C1O (centres undefined) | 22.8 µM |
| O=C(N/N=C/c1cccc(O)c1O)c1ccccc1 | 8.38 µM |
| O=C(CCl)Nc1ccc(Cl)cc1 | 20.7 µM |
| CCOC(=O)/C(C#N)=C/Nc1c(C)n(C)n(-c2ccccc2)c1=O | > 100 µM |
| N=C1C(=N)c2ccccc2-c2ccccc21.[Cl-].[Ru+2].c1cnc2c(c1)ccc1cccnc12.c1cnc2c(c1)ccc1cccnc12 | 67.9 µM |
| CCC[CH2][Sn]1([CH2]CCC)[O]C(=O)C(C(C)C)N=Cc2ccccc2[O]1 (centres undefined) | 0.442 µM |
| Cn1c(-c2cccs2)cc(-c2cccs2)c1-c1cccs1 | > 100 µM |
| N#Cc1nc(C2OC(COC(=O)c3ccccc3)C(OC(=O)c3ccccc3)C2OC(=O)c2ccccc2)oc1N (centres undefined) | > 100 µM |
| C[C@]12CCC(O)CC1=CC[C@@H]1[C@@H]2CC[C@]2(C)C(O)[C@H](n3ccnc3)C[C@@H]12 (some centres undefined) | > 100 µM |
| CCOC(=O)C1(CO)CSCCSC1 | > 100 µM |
| NC(N)=NCCCn1c2c(c3ccccc3c1=O)C(=O)c1ccccc1-2 | 47.5 µM |
| CC(C)OC(=O)c1ccc(NCC2=CC(=O)C=CC2=O)cc1 | 8.83 µM |
| CCOC(=O)NC(=O)c1cn(CCOCCOC(=O)NCCCCCCNC(=O)OCCOCCn2cc(C(=O)NC(=O)OCC)c(=O)[nH]c2=O)c(=O)[nH]c1=O | > 100 µM |
| CCOC1=NC(=O)CC(c2ccccc2)S1 (centres undefined) | > 100 µM |
| O=C(c1cccc(O)c1O)c1cn(Cc2ccc(F)cc2)c2cccc(O)c12 | 7.44 µM |
| CCN(CC)CCN1CC(O)=C(c2nc(-c3ccc(Cl)cc3)cs2)C1=N | 8.65 µM |
| CCCN(CCc1ccc(-c2ccccc2)cc1)CCc1ccc2n[nH]nc2c1 | 15.2 µM |
| CSC1=N/C(=C\c2ccc(C)cc2)C(=O)N1 | > 100 µM |
| COc1cc(C2C3=C(COC3=O)OC(C)(C)Oc3cc4c(cc32)OCO4)cc(OC)c1O (centres undefined) | > 94.5 µM |
| Cc1ccc(Nc2nc3c(s2)C(=O)c2ccccc2C3=O)c(C)c1 | 22.9 µM |
| COc1ccc(CNc2ccn(C3OC(CO)C(O)C3O)c(=O)n2)cc1 (centres undefined) | > 100 µM |
